- target_or_system: ER (Homo sapiens (Human), UniProt P03372)
- Sequence (P03372 whole entry): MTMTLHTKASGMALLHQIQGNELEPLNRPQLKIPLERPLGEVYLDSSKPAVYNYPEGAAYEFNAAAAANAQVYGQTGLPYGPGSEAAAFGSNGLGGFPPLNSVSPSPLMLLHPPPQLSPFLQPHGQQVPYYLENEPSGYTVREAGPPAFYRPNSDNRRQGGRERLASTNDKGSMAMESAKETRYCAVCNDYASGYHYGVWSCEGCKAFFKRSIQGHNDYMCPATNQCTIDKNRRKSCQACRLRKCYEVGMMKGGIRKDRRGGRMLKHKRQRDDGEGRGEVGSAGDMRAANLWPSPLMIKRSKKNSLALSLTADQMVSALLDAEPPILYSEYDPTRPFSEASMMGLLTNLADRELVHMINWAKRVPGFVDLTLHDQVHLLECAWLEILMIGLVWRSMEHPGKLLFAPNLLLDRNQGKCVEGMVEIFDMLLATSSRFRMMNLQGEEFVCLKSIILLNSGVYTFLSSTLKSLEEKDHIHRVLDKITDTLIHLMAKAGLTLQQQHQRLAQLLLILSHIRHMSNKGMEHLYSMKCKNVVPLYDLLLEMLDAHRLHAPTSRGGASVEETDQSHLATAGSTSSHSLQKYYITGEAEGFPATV
- procedure_details: In-cell western (ICW) ER degradation assay in T47D cells
- Format: cell-based
- run_parameters: maximal ER degradation, 16 hrs
- Method: ERa degradative activity of compounds can be assessed in MCF-7 and T47D Cells. MCF-7 and T47D cell are seeded and are subsequently treated with the compounds at certain concentrations (e.g., 0.02 to 300 nM). DMSO can be used as vehicle control. Cells are fixed and are blocked with Intercept (PBS) Blocking Buffer (e.g., Li-COR, Odyssey Blocking Buffer), and are stained with ER (e.g., 1:500, Cell signaling) primary antibody for overnight at cold room. […]
metric_name: Dmax

Here's what some known entries look like.
Return reported Dmax. Input compound: O=C1CC[C@H](NC(=O)c2ccc3c(n2)OC[C@H]2CN(CC4CCC5(CC4)CN(c4ccc([C@@H]6c7ccc(O)cc7OC[C@@H]6c6ccccc6)cc4)C5)CCN32)C(=O)N1
50 to 75%

Return reported Dmax. Input compound: O=C1CCC(N2Cc3c(ccc4c3OC[C@H]3CN(CC5CCN(c6ccc([C@H]7c8ccc(O)cc8OC[C@H]7c7ccccc7)cn6)CC5)CCN43)C2=O)C(=O)N1 (single isomer, unassigned)
50 to 75%

Return reported Dmax. Input compound: O=C1CC[C@@H](N2Cc3cc4c(cc3C2=O)OC[C@H]2CN(C[C@@H]3COC5(CCN(c6ccc([C@H]7c8ccc(O)cc8OC[C@H]7c7ccccc7)cc6F)CC5)C3)CCN42)C(=O)N1
25 to 50%

Return reported Dmax. Input compound: O=C1CC[C@@H](N2Cc3cc4c(cc3C2=O)OC[C@@H]2CN(CC3CC5(CCN(c6ccc([C@H]7c8ccc(O)cc8OC[C@H]7c7ccccc7)cc6)CC5)C3)CCN42)C(=O)N1
50 to 75%

# next compound below
Return reported Dmax. Input compound: O=C1CC[C@H](N2Cc3c(ccc4c3OC[C@H]3CN(CC5CC6(CCN(c7ccc([C@H]8c9ccc(O)cc9OC[C@H]8c8ccccc8)cc7)CC6)C5)CCN43)C2=O)C(=O)N1 (single isomer, unassigned)
50 to 75%
